# Test Target: hCMV UL130 and UL131A co-expressed in HEK293T cells (human cytomegalovirus, UniProt P16772 1-214)
# Sequence (P16772 whole entry): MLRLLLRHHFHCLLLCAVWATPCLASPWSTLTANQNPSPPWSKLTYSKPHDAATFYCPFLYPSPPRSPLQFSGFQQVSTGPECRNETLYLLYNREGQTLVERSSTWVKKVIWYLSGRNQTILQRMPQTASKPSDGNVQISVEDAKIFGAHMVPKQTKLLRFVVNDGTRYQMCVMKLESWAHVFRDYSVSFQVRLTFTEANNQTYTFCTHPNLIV
# Assay Protocol: cell-based or functional assay
Property: 90% Neutralization MRC-9 (hCMV VR1814)

Problem: GET /values?readout=90% Neutralization MRC-9 (hCMV VR1814)&item= 4I22 (antibody, V domains shown, human IgG mAb; also called 4I22-biotin) VH: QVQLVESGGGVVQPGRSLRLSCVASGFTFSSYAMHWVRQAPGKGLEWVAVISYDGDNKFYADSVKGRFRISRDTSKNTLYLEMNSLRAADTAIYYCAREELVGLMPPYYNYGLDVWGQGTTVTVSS VL: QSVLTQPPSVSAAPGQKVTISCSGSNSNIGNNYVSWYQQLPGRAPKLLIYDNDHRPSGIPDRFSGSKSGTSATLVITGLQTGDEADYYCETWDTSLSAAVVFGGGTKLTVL
Result: > 10 µg/mL

Measured values drawn from patent US20100092481A1 for this set.
